method notes: Tmax in male Sprague-Dawley rat at 15 mg/kg, po measured upto 30 hrs by LC-MS/MS analysis
Assay type: ADME, organism-based
condition description: in vivo
readout name: Tmax (min)

INSERT INTO assay_data (smiles_code, readout_name, observed_value) VALUES
  ('CONC(=O)/C(=C/n1cnc(-c2cc(C(F)(F)F)cc(C(F)(F)F)c2)n1)c1cncnc1', 'Tmax', 15);

* * *

method notes: Half life in male Sprague-Dawley rat at 30 mg/kg, po measured upto 30 hrs by LC-MS/MS analysis
Type: ADME, organism-based
condition description: in vivo
readout name: half-life (h)

INSERT INTO results (smiles_code, observed_value) VALUES
  ('CONC(=O)/C(=C/n1cnc(-c2cc(C(F)(F)F)cc(C(F)(F)F)c2)n1)c1cncnc1', 3.6);
